Numbers sourced from patent US20260242478A1.

- measuredOn: T1, Anti-CD28 Fab (SEQ ID NOs: 696, 697)
- T1 construct: Biotinylated and captured on neutravidin coated plates in the phage ELISA
- assayOverview: phage binding ELISA; biotinylated Fab on neutravidin plate, clonal phage supernatant, anti-M13 HRP;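 further: clones picked after panning, added to wells pre-incubated with CD28 antigen or with blocking buffer only, no wash before phage addition, bound phage read after washing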
Where no end group is shown, it is not given here.
Below, each entry is listed with its recorded Anti-CD28 Fab (SEQ ID NOs: 696, 697) signal.
When you answer, write just the number.

YCQGHLPMYMEKCL (cysteine pairing not given here; also: displayed on phage as fusion to pIII, linker, pIII sequence and order not given here, Clonal phage supernatant; not shown: pIII filament protein of the bacteriophage to which the peptide is fused) [Phage-532]    2.34
YCDGHLPIYMSKCL (cysteine pairing not given here; also: displayed on phage as fusion to pIII, linker, pIII sequence and order not given here, Clonal phage supernatant; not shown: pIII filament protein of the bacteriophage to which the peptide is fused) [Phage-536]    2.32
YCDGHSPMYILKCL (cysteine pairing not given here; also: displayed on phage as fusion to pIII, linker, pIII sequence and order not given here, Clonal phage supernatant; not shown: pIII filament protein of the bacteriophage to which the peptide is fused) [Phage-531]    2.34
YCQGHLPMYMAKCL (cysteine pairing not given here; also: displayed on phage as fusion to pIII, linker, pIII sequence and order not given here, Clonal phage supernatant; not shown: pIII filament protein of the bacteriophage to which the peptide is fused) [Phage-529]    2.34
YCEGHLPEYMLKCL (cysteine pairing not given here; also: displayed on phage as fusion to pIII, linker, pIII sequence and order not given here, Clonal phage supernatant; not shown: pIII filament protein of the bacteriophage to which the peptide is fused) [Phage-539]    2.32

q: Would you kindly share the measured Anti-CD28 Fab (SEQ ID NOs: 696, 697) signal for YCEGHSPEYMAKCL (cysteine pairing not given here; also: displayed on phage as fusion to pIII, linker, pIII sequence and order not given here, Clonal phage supernatant; not shown: pIII filament protein of the bacteriophage to which the peptide is fused) [Phage-526] ?
a: 2.35

q: Would you kindly share the measured Anti-CD28 Fab (SEQ ID NOs: 696, 697) signal for YCDGHLPEYMMKCL (cysteine pairing not given here; also: displayed on phage as fusion to pIII, linker, pIII sequence and order not given here, Clonal phage supernatant; not shown: pIII filament protein of the bacteriophage to which the peptide is fused) [Phage-530] ?
a: 2.34
